Answer each item with its documented melting point.
Numbers only, in °C.

[[record]]
molecule = "CCCC1COC(c2ccc(C#N)cc2)OC1 (stereo not drawn)"
assay_metric = "melting point"
value_measured = 57.5

[[record]]
molecule = "O=C(O)c1ccc(Br)nc1"
assay_metric = "melting point"
value_measured = 184


Return reported melting point values for all items listed beneath this line.
1. COC(=O)c1ccc(O)c(Cl)c1
2. OC12CC=CCC1(O)CC=CC2 (stereo not drawn)
3. O=Cc1cc(O)ccc1[N+](=O)[O-]
4. CC(C)(C)Oc1ccccc1

Result string:
[107, 83, 167, -24]

* * *

Lab note: anything with melting point at or over 100 °C counts as Satisfied; the rest go in Not satisfied.

[[record]]
molecule = "O=S(=O)(O)NC1CCCCC1"
label = "Satisfied"

[[record]]
molecule = "C[Si](C)(C)OC1(C#Cc2ccccc2)Cc2ccccc21 (configuration not stated)"
label = "Not satisfied"

[[record]]
molecule = "CC(=O)c1nn(-c2ccc(F)cc2)c(=N)s1"
label = "Satisfied"


Query string: Reported melting point reaches at least 100 °C for CCCC(O)C(=O)O (configuration not stated) ?
Result string: Not satisfied

Query string: Reported melting point reaches at least 100 °C for C=CCN1CCC23c4c5ccc(O)c4OC2C(O)C=CC3C1C5 (configuration not stated) ?
Result string: Satisfied

Query string: Reported melting point reaches at least 100 °C for CC(=O)Oc1ccc2ccc(OC(C)=O)cc2c1 ?
Result string: Satisfied

Query string: Reported melting point reaches at least 100 °C for CCc1ccc(C(C)=O)cc1 ?
Result string: Not satisfied

* * *

Answer each item with its documented melting point.
Numbers only, in °C.

Examples from the recorded data:
[[record]]
smiles_representation = "CCCCCCC(=O)CCCC"
value_measured = 2

[[record]]
smiles_representation = "Cn1cc(Br)c(N)n1"
value_measured = 98


Return reported melting point values for all items listed beneath this line.
1. CC(=O)C=Cc1oc2ccc([N+](=O)[O-])cc2c1-c1ccc(C)o1
2. O=c1c2ccccc2cc2c3ccccc3ccn12
3. COc1cc(OC)nc(NC(=O)NS(=O)(=O)N(C)S(C)(=O)=O)n1
4. CC(=O)[C@H]1CC[C@H]2[C@@H]3CC=C4C[C@@H](OC(=O)CCC(=O)O)CC[C@]4(C)[C@H]3CC[C@]12C
5. CC(C)N=c1cc2n(-c3ccc(Cl)cc3)c3ccccc3nc-2cc1Nc1ccc(Cl)cc1
6. CCCCCCCCCCCCCCCC(=O)CC
7. O=C1/C(=N/Nc2ccc(F)cc2)C(C(F)(F)F)=NN1c1ccccc1
8. O=S(=O)(Cl)c1cc(S(=O)(=O)c2ccccc2)cs1

Result string:
[178, 147, 179, 180, 211, 51, 185, 102]

Return reported melting point values for all items listed beneath this line.
1. Cc1onc(-c2ccccc2Cl)c1C(=O)Cl
2. C1CN2CCN3CCN1C23
3. O=C(NCCc1ccccc1)c1cc([N+](=O)[O-])cc([N+](=O)[O-])c1

Result string:
1: 42; 2: -14.7; 3: 204

* * *

assay.metric: melting point

Examples from the recorded data:
[[record]]
compound = "FC(F)(F)c1ccccc1CCc1ccccc1C(F)(F)F"
value_measured = "75 °C"

[[record]]
compound = "Cc1ccc(S(=O)(=O)NC(=O)NC2C3CCC(C)(C2O)C3(C)C)cc1 (configuration not stated)"
value_measured = "192 °C"

[[record]]
compound = "CCOC(=O)c1sc2ncccc2c1N"
value_measured = "183 to 185 °C"

[[record]]
compound = "Clc1ccc(-c2cc[nH]n2)cc1"
value_measured = "80 to 84 °C"

[[record]]
compound = "Nc1cccc(CN2CCCCC2)c1"
value_measured = "106 to 109 °C"

[[record]]
compound = "NC(=O)NCCC[C@H](N)C(=O)O"
value_measured = "236 °C"


Note: attention shifts to another entry.
Quick note, melting point for CC1=C(C)CC(Cl)(Cl)C(=O)C(Cl)(Cl)C1 landed at 91 °C

* * *

assay.metric: melting point (°C)
One number for each entry, in °C.

Examples from the recorded data:
[[record]]
molecule = "ClC(COCC(Cl)C(Cl)(Cl)Cl)C(Cl)(Cl)Cl (configuration not stated)"
assay_metric = "melting point"
value_measured = -50

[[record]]
molecule = "Clc1cc2c(Cl)cccc2c(Cl)c1Cl"
assay_metric = "melting point"
value_measured = 141

[[record]]
molecule = "CCCCCCCCCCC(C)Br (configuration not stated)"
assay_metric = "melting point"
value_measured = -96

[[record]]
molecule = "Nn1c(S)nnc1-c1ccc(Cl)cc1"
assay_metric = "melting point"
value_measured = 320

[[record]]
molecule = "O=C(O)CCc1ccccc1"
assay_metric = "melting point"
value_measured = 107


Note: attention shifts to another entry.
Quick note, melting point for Cn1nc(C(C)(C)C)cc1N landed at 157

* * *

# label = bin(measured melting point), where bins are bin A (below 40 °C), bin B (40 °C to below 100 °C), bin C (100 °C or more)

For orientation, consider the following solved cases.
[[record]]
compound = "O=C(Nc1ccc(Cl)cc1)C(Cl)=C(Cl)Cl"
label = "bin C"

[[record]]
compound = "COCCOC"
label = "bin A"

[[record]]
compound = "CN1CCN(C2=Nc3ccccc3Cc3ccccc32)CC1"
label = "bin C"


Query string: Class? Entry: O=C1OC(C(Cl)(Cl)Cl)Cc2ccccc21 (stereo not drawn)
Result string: bin C

Query string: Class? Entry: CC(C)(OO)c1ccccc1
Result string: bin A

Query string: Class? Entry: CC(=O)NCCNC(C)=O
Result string: bin C

Query string: Class? Entry: CC(F)(F)C(=O)O
Result string: bin B

Query string: Class? Entry: CCCCCCCCC(C(=O)O)C(=O)O
Result string: bin C

Query string: Class? Entry: N#CC1=C(N)Oc2[nH]nc(C(F)(F)F)c2C1c1ccccc1Cl (stereo not drawn)
Result string: bin C

Query string: Class? Entry: CC(=O)OC1CCCCC1C(C)(C)C (stereo not drawn)
Result string: bin A

Query string: Class? Entry: Cc1cccc([N+](=O)[O-])c1O
Result string: bin B

Query string: Class? Entry: CC(=O)c1ccc(C)cc1O
Result string: bin A

Query string: Class? Entry: c1cnc2c(c1)ccc1ncccc12
Result string: bin B

Query string: Class? Entry: CCOC(=O)c1c[nH]cc1C
Result string: bin B

Query string: Class? Entry: CCCCCCCCc1ccc(O)cc1
Result string: bin B

Query string: Class? Entry: CCC1(CCC(C)C)C(=O)NC(=O)NC1=O
Result string: bin C

Query string: Class? Entry: COC(=O)C1=Cc2ccccc2C1C (stereo not drawn)
Result string: bin A

* * *

assay.metric: melting point

[[record]]
molecule = "CCC[C@H]1CCC[C@H]1C (relative stereo)"
value_measured = "-104 °C"

[[record]]
molecule = "CC(=O)N1CCN(c2ccc(O)cc2)CC1"
value_measured = "183 °C"

[[record]]
molecule = "Cc1c(F)ccc(C(=O)Cl)c1F"
value_measured = "37 °C"


Return reported melting point values for all items listed beneath this line.
1. NC(=S)NNC(N)=S
2. CC(C)(C)C(=O)Cl
3. CC(=O)OC1=C(C)C2(OC(C)=O)CCC1C1C(=O)NC(=O)C12 (configuration not stated)
4. OCc1csc(-c2ccccc2)n1
5. CSc1nc(N)c(C(=O)c2ccc(Br)cc2)s1
6. COc1c(C)cc(C(=O)O)cc1C
7. CCc1ccccc1C(=O)N(NC(=O)c1ccccc1)C(C)(C)C
8. O=[N+]([O-])c1ccc(CCBr)cc1

Result string:
["200 to 203 °C", "-56 °C", "161 to 162 °C", "65 to 69 °C", "163 to 165 °C", "190 to 194 °C", "178 °C", "69 °C"]

Return reported melting point values for all items listed beneath this line.
1. CCCCCCCCCCC(=O)c1ccccc1
2. CC(CCC(N)=O)n1nc2ccccc2n1 (configuration not stated)
3. O=C(O)c1ccc(Br)c(C(=O)O)c1

Result string:
1. 28 to 30 °C
2. 102 °C
3. 297 to 299 °C

Return reported melting point values for all items listed beneath this line.
1. CCCCCCCc1ccc(-c2ccccc2)cc1
2. Cc1cccc2[nH]ccc12

Result string:
1. 27 °C
2. 5 °C

Return reported melting point values for all items listed beneath this line.
1. CCOC(=O)Cc1ccc(N)cc1
2. C1CN2CCC1CC2
3. COc1ccc(CCO)cc1

Result string:
1. 48 to 50 °C
2. 158 °C
3. 28 to 30 °C

Return reported melting point values for all items listed beneath this line.
1. CC(=O)Nc1c(I)c(NC(C)=O)c(I)c(C(=O)O)c1I
2. Cc1nc(-c2ccccc2)c(C=O)s1
3. CCCCCCS(=O)(=O)O
4. COc1cccc2c1C(=O)c1c(O)c3c(c(O)c1C2=O)CC(O)(C(C)=O)CC3OC1CC(N)C(O)C(C)O1 (configuration not stated)
5. N=C1NC(=O)C(=NNc2ccccc2[N+](=O)[O-])S1
6. Cc1nc2ccccc2[nH]c1=O

Result string:
300 °C
72 to 75 °C
16.1 °C
208 °C
274 °C
270 °C

Return reported melting point values for all items listed beneath this line.
1. C#CC1(OC(C)=O)CCC2C3CCC4=CC(=O)CCC4C3CCC21C (configuration not stated)
2. Cc1c(C)c(C)c2c(c1C)C(=O)CC2C(=O)O (configuration not stated)
3. Cc1ccc([N+](=O)[O-])cc1S(=O)(=O)O
4. CC1(C)CC(=O)C(=NNc2ccc(O)cc2)C(=O)C1
5. Cc1cn(CCC(=O)O)c2ccccc12
6. Cc1c([N+](=O)[O-])cc(C(=O)O)cc1[N+](=O)[O-]
7. CCOC(=O)c1c(NC(=O)CCl)sc2c1CCCC2
8. CCOC(=O)NN(C(=O)OCC)c1c(-c2ccccc2)nc2n1CCS2

Result string:
162 °C
214 °C
133 °C
206 °C
87 to 88 °C
155 to 159 °C
115 to 117 °C
179 to 180 °C

Return reported melting point values for all items listed beneath this line.
1. Cc1c(NC(=O)C(C)N(C)C)c(=O)n(-c2ccccc2)n1C (configuration not stated)
2. NNC(=O)C(O)c1ccccc1 (configuration not stated)
3. Cc1ccc(F)cc1C(N)=O
4. CC1CCCC(=O)C1=O (configuration not stated)
5. CNCc1ccc(-c2ncccn2)cc1
6. CCSC(=O)COc1ccc(Cl)cc1C

Result string:
1: 181 °C; 2: 130 °C; 3: 120 to 122 °C; 4: 58 °C; 5: 49.5 to 54.9 °C; 6: 41.5 °C

Return reported melting point values for all items listed beneath this line.
1. CN(C)c1ccc(C2(c3ccc(N(C)C)cc3)OC(=O)c3cc(N(C)C)ccc32)cc1
2. CC(=O)Nc1ccc2c(NC(C)=O)c(O)ccc2c1
3. O=C(O)C(O)c1ccc(C(F)(F)F)cc1 (configuration not stated)
4. Ic1cccc(-c2ccccc2)c1
5. COc1ccc(Br)cc1C=O
6. N#CC(=CN1CCOCC1)C(N)=O
7. CCOP(=S)(OCC)SC(CCl)N1C(=O)c2ccccc2C1=O (configuration not stated)

Result string:
["182 °C", "235 °C", "130 to 134 °C", "26.5 °C", "116 °C", "173 to 177 °C", "68 °C"]
